molecular target: C-C chemokine receptor type 2 (Mus musculus); assay: Antagonist activity at mouse CCR2
Sequence (P51683 whole entry): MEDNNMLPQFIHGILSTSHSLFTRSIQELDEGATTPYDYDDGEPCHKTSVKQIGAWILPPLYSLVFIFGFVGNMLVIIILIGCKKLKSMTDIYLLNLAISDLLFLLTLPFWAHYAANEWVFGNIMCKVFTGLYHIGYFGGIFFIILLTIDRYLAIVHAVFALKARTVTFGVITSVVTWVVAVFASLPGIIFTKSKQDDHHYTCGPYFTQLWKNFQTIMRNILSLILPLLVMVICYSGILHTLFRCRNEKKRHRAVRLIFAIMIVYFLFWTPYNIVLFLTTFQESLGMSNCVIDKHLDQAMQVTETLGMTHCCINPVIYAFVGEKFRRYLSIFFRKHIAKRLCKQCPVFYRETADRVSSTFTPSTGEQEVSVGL
pKi: −log10 of the molar value.
outcome_measure: pKi

Consider the worked cases shown below.
smiles: O=C(O)c1ccccc1Oc1c(F)cc(C(F)(F)F)cc1NS(=O)(=O)c1ccc(Cl)cc1
outcome_measure: pKi
recorded_result: 6.60
//
smiles: O=C(O)c1ccccc1Oc1ccc(C(F)(F)F)cc1NS(=O)(=O)c1ccc(Cl)cc1
outcome_measure: pKi
recorded_result: 5.80

(a) O=C(O)c1c(F)cccc1Oc1ccc(C(F)(F)F)cc1NS(=O)(=O)c1ccc(Cl)cc1
(b) O=C(O)c1ccccc1Oc1ccccc1NS(=O)(=O)c1ccc(Cl)cc1
Request: Of a and b , whose reported pKi is numerically smaller? # reply format: chosen label
Result: b
